These measurements were taken from paper PMC8960791.

Biological target: soluble HLA-E-VL9, HLA-E*01:03 heavy chain refolded with β2-microglobulin and synthetic VL9 peptide (Homo sapiens, HLA-E*01:03, strain)

BINDER	binding result
CA176 (antibody, V domains shown) VH: QVQLVESGGGVVQPGRSLRLSCAASGFTFSSYGMHWVRQAPGKGLEWVAVISYDGSNKYYADSVKGRFTISRDNSKNTLYLQMNSLRAEDTAVYYCAKDEGSSDFWSGYYASFDYWGQGTLVTVSS VL: DIQMTQSPISLSASVGDRVTITCRASQDISNYLTWYQQKPGKAPKLLIYAASSLQSGVPSRFSGSGSGTDFTLTISNLQPEDFATYYCQQNYSYPCTFGQGTKVEIK	binds
CA134 (antibody, V domains shown) VH: EVQLVESGGGLVKPGGSLRLSCAASGFTFSSYSMNWVRQAPGKGLEWVSSISSSSSYIYYADSVKGRFTISRDNAKNSLYLQMNSLRAEDTAVYYCARVFGEQLVSFFDYWGQGTLVTVSS VL: EIVMTQSPPGERATLSCRASQSVSSNLAWYQQKPGQAPRLLIYGASTRATGIPARFSGSGSGTEFTLTISSLQSEDFAVYYCQQYNNWPPWTFGQGTKVEIK	binds
